The measured values listed here are drawn from paper PMC6445163.

# assayed target: T1, COX-2 (Homo sapiens, UniProt P35354)
# T1 construct: purchased Biovision K547-100
# T1 sequence (P35354 18-604): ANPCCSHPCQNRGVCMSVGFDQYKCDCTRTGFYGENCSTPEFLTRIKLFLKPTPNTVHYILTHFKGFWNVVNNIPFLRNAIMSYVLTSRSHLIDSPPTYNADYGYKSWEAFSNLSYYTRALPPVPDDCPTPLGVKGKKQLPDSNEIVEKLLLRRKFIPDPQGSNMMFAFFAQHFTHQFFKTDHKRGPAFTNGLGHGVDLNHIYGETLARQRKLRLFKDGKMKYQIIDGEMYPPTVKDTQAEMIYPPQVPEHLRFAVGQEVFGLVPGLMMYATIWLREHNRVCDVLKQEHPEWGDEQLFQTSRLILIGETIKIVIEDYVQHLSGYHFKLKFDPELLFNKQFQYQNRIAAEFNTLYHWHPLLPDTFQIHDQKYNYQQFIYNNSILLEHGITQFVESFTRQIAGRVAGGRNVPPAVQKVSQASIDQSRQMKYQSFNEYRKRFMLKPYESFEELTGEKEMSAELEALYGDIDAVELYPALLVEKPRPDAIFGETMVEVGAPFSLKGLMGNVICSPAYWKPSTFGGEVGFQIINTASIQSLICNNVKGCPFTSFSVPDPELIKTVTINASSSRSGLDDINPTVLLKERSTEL
# procedure summary: fluorometric COX-2 inhibitor screening kit assay
# Format: biochemical
# measurement context: 25 °C
# Procedure: Inhibitory potency of the compounds against COX-1 and COX-2 enzymes was determined using fluorometric COX-1 and COX-2 inhibitor screening kits (Biovision, Zurich, Switzerland). Experimental protocol was followed as described in the guides of the supplier[47]^,[48]. […] Appropriate two points (T1 and T2) in the linear range of the plot were chosen, and the corresponding fluorescence values (RFU1 and RFU2) were obtained. […] Selectivity indexes (SI) were expressed as IC50 (COX-1)/IC50 (COX-2). […]
Quick list: IC50 per entry.
Reply numerically in µM, unit not repeated.

Past entries and their recorded results:
1) CC(C(=O)O)c1ccc(CSc2nc3cc(Cl)ccc3s2)cc1 (stereo not drawn)
4.25
2) Cc1ccc(C(C)C(=O)O)cc1 (stereo not drawn)
64.3

Enquiry: Param item = CC(C(=O)O)c1ccc(CSc2nc3ccccc3[nH]2)cc1 (stereo not drawn) ; retrieve measured IC50.
Return: 9.56

Enquiry: Subsequent entry: COc1ccc2[nH]c(SCc3ccc(C(C)C(=O)O)cc3)nc2c1 (stereo not drawn)
Return: 2.34

Enquiry: One more compound: CC(C(=O)O)c1ccc(CSc2nc3ccccc3s2)cc1 (stereo not drawn)
Return: 4.41

Enquiry: CC(C(=O)O)c1ccc(CSc2nc[nH]n2)cc1 (stereo not drawn) ?
Return: 36.7

Enquiry: Another compound to look at: CC(C(=O)O)c1ccc(CSc2nc3cc([N+](=O)[O-])ccc3[nH]2)cc1 (stereo not drawn)
Return: 8.66

Enquiry: And for CC(C(=O)O)c1ccc(CSc2nccn2C)cc1 (stereo not drawn) ?
Return: 47.4

Enquiry: Then this compound: CC(C(=O)O)c1ccc(CSc2nncn2C)cc1 (stereo not drawn)
Return: 39.9

###

Each entry below carries its measured MIC, system: Escherichia coli (ATCC 25922).
Field format: number, assumed µg/mL, no unit text.

Solved cases below.
1) COc1ccc2sc(SCc3ccc(C(C)C(=O)O)cc3)nc2c1 (stereo not shown)
12.5
2) CC(C(=O)O)c1ccc(CSc2nc3cc(Cl)ccc3s2)cc1 (stereo not shown)
12.5
3) CC(C(=O)O)c1ccc(CSc2nncn2C)cc1 (stereo not shown)
12.5
4) CC(C(=O)O)c1ccc(CSc2nc3ccccc3[nH]2)cc1 (stereo not shown)
12.5
5) Cc1ccc2[nH]c(SCc3ccc(C(C)C(=O)O)cc3)nc2c1 (stereo not shown)
12.5

Enquiry: Looking for the measured MIC of CC(C(=O)O)c1ccc(CSc2nccn2C)cc1 (stereo not shown) , can you help?
Return: 12.5

Enquiry: Item: Cc1ccc(C(C)C(=O)O)cc1 (stereo not shown)
Return: 50

###

# assayed target: COX-1 (Ovis aries, UniProt P05979)
# Construct: purchased Biovision K548-100
# procedure summary: fluorometric COX-1 inhibitor screening kit assay
# Assay type: biochemical
# measurement context: IC50 (COX-1)/IC50 (COX-2)
measured endpoint: SI (selectivity index)
Please give only the number in your answer, with no unit.

1) CC(C(=O)O)c1ccc(CSC2=NCCS2)cc1 (stereo not shown)
0.59
2) CC(C(=O)O)c1ccc(CSc2nc[nH]n2)cc1 (stereo not shown)
0.53
3) CC(C(=O)O)c1ccc(CSc2nc3cc([N+](=O)[O-])ccc3[nH]2)cc1 (stereo not shown)
0.52

Please turn your attention to the following entry.
Enquiry: Which SI (selectivity index) reading was recorded for the molecule CC(C(=O)O)c1ccc(CSc2nccn2C)cc1 (stereo not shown) ?
Return: 0.60

###

# assayed target: COX-2 (Homo sapiens, UniProt P35354)
# Construct: purchased Biovision K547-100
# procedure summary: fluorometric COX-2 inhibitor screening kit assay
# Type: biochemical
# measurement context: 25 °C
Assign labels as follows, please: satisfied for IC50 below 6 µM; not satisfied for IC50 equal to or exceeding 6 µM.

1) COc1ccc2sc(SCc3ccc(C(C)C(=O)O)cc3)nc2c1 (centres unmarked)
satisfied
2) Cc1ccc2[nH]c(SCc3ccc(C(C)C(=O)O)cc3)nc2c1 (centres unmarked)
not satisfied
3) CC(C(=O)O)c1ccc(CSC2=NCCS2)cc1 (centres unmarked)
not satisfied

Enquiry: Please check: IC50 for CC(C(=O)O)c1ccc(CSc2nnnn2C)cc1 (centres unmarked) , strictly under 6 µM or not?
Return: not satisfied

###

# Test system: TA100 (base-pair substitutions)
# procedure summary: Ames MPF mutagenicity assay, TA100
# Assay type: cell-based, Salmonella typhimurium
# measurement context: Salmonella typhimurium; each concentration, with and without S9; read-out: Fold inductions over baseline, TA 100
measured endpoint: fold induction

Enquiry: API: value(readout=fold induction, system=TA100 (base-pair substitutions)) for record COc1ccc2[nH]c(SCc3ccc(C(C)C(=O)O)cc3)nc2c1 (stereo not shown)
Return: < 1.5

###

# procedure summary: MTT cytotoxicity test
# measurement context: mouse, NIH/3T3 mouse embryonic fibroblast cells
measured endpoint: IC50

1. COc1ccc2sc(SCc3ccc(C(C)C(=O)O)cc3)nc2c1 (centres unmarked)
≥ 1000 µM

Enquiry: Would you mind telling me what IC50 value was observed for COc1ccc2[nH]c(SCc3ccc(C(C)C(=O)O)cc3)nc2c1 (centres unmarked) ?
Return: ≥ 1000 µM

###

Catalogue of MIC Kp readings, one per entry.
# Tested on: Klebsiella pneumoniae (NCTC 9633)
# procedure summary: broth microdilution MIC (CLSI M07-A9), resazurin
# Assay type: cell-based
# measurement context: 24 h
Hi! Could you send only the number? It should be in µg/mL, unit omitted.

Enquiry: I would be grateful if you could share the reported MIC Kp for CC(C(=O)O)c1ccc(CSc2nc3cc(Cl)ccc3s2)cc1 (stereo not drawn) .
Return: 12.5

Enquiry: Moving on to the next compound: Cc1ccc(C(C)C(=O)O)cc1 (stereo not drawn)
Return: 50

Enquiry: Try this compound too: COc1ccc2sc(SCc3ccc(C(C)C(=O)O)cc3)nc2c1 (stereo not drawn)
Return: 6.25

Enquiry: Follow-up item: CC(C(=O)O)c1ccc(CSc2nnnn2C)cc1 (stereo not drawn)
Return: 6.25

Enquiry: Entry to check: CC(C(=O)O)c1ccc(CSc2nccn2C)cc1 (stereo not drawn)
Return: 6.25

Enquiry: Next record, please: CC(C(=O)O)c1ccc(CSc2nc3cc(Cl)ccc3[nH]2)cc1 (stereo not drawn)
Return: 6.25

Enquiry: Also need COc1ccc2[nH]c(SCc3ccc(C(C)C(=O)O)cc3)nc2c1 (stereo not drawn) , thanks.
Return: 6.25

Enquiry: Lookup CC(C(=O)O)c1ccc(CSC2=NCCS2)cc1 (stereo not drawn)
Return: 6.25

Enquiry: Thanks! And CC(C(=O)O)c1ccc(CSc2nc3ccccc3s2)cc1 (stereo not drawn) ?
Return: 12.5

Enquiry: Record: CC(C(=O)O)c1ccc(CSc2nc[nH]n2)cc1 (stereo not drawn)
Return: 12.5

Enquiry: # iterate: CC(C(=O)O)c1ccc(CSc2nncn2C)cc1 (stereo not drawn)
Return: 6.25

Enquiry: One more compound: CC(C(=O)O)c1ccc(CSc2nc3cc([N+](=O)[O-])ccc3[nH]2)cc1 (stereo not drawn)
Return: 6.25

Enquiry: Also CC(C(=O)O)c1ccc(CSc2nc3ccccc3[nH]2)cc1 (stereo not drawn) , if possible.
Return: 6.25

Enquiry: What do you get for Cc1ccc2[nH]c(SCc3ccc(C(C)C(=O)O)cc3)nc2c1 (stereo not drawn) ?
Return: 6.25

Enquiry: Entry to check: O=C(N[C@H](CO)[C@H](O)c1ccc([N+](=O)[O-])cc1)C(Cl)Cl [Chloramphenicol, reference compound]
Return: 12.5

###

# assayed target: T1, COX-1 (Ovis aries, UniProt P05979)
# T1 construct: purchased Biovision K548-100
# T1 sequence (P05979 25-600): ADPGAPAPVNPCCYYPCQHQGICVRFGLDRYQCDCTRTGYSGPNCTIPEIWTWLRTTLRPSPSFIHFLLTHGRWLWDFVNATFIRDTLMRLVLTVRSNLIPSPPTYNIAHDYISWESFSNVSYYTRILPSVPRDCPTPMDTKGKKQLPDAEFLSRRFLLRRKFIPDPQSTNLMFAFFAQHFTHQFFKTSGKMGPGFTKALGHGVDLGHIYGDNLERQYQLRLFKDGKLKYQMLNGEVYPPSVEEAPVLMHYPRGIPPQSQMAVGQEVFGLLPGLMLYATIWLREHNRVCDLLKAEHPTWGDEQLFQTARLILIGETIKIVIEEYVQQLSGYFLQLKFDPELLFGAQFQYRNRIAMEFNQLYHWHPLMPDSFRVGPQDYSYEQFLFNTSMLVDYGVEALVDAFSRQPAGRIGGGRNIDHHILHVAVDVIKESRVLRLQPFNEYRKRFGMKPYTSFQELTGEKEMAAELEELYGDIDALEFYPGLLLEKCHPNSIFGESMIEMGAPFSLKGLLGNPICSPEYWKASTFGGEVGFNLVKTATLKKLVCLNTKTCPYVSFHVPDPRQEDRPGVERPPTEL
# procedure summary: fluorometric COX-1 inhibitor screening kit assay
# Type: biochemical
# measurement context: fluorometric kit, 25 °C
# Procedure: Inhibitory potency of the compounds against COX-1 and COX-2 enzymes was determined using fluorometric COX-1 and COX-2 inhibitor screening kits (Biovision, Zurich, Switzerland). Experimental protocol was followed as described in the guides of the supplier[47]^,[48]. […] Appropriate two points (T1 and T2) in the linear range of the plot were chosen, and the corresponding fluorescence values (RFU1 and RFU2) were obtained. […] Selectivity indexes (SI) were expressed as IC50 (COX-1)/IC50 (COX-2). […]
Form field: log10 of IC50 (one value per entry).
A value of 2 here means IC50 of 100 in µM, since values are log10.

1) CC(C(=O)O)c1ccc(CSc2nc3cc(Cl)ccc3s2)cc1 (stereo not drawn)
0.39
2) COc1ccc2sc(SCc3ccc(C(C)C(=O)O)cc3)nc2c1 (stereo not drawn)
0.25
3) Cc1ccc(C(C)C(=O)O)cc1 (stereo not drawn)
1.58
4) CC(C(=O)O)c1ccc(CSC2=NCCS2)cc1 (stereo not drawn)
1.35
5) CC(C(=O)O)c1ccc(CSc2nccn2C)cc1 (stereo not drawn)
1.46
6) CS(=O)(=O)Nc1ccc([N+](=O)[O-])cc1Oc1ccccc1 [Nimesulide, reference compound]
0.63
7) CC(C(=O)O)c1ccc(CSc2nc3cc([N+](=O)[O-])ccc3[nH]2)cc1 (stereo not drawn)
0.65
8) CC(C(=O)O)c1ccc(CSc2nc3ccccc3s2)cc1 (stereo not drawn)
0.37

Enquiry: Short answer please: log10 of IC50, T1, COX-1 (Ovis aries, UniProt P05979), entry CC(C(=O)O)c1ccc(CSc2nc3cc(Cl)ccc3[nH]2)cc1 (stereo not drawn)
Return: 0.57
